# assay_protocol: Saturation solubility of OA in different oils and surfactants
# Assay type: physicochemical
# experimental_parameters: oil or lipid, thermodynamic from solid; in Captex 355, 24 h at 25 °C
assay_metric: solubility at 24 h
Number plus unit, in that order.

Request: Supply recorded solubility at 24 h for CC1(C)CC[C@]2(C(=O)O)CC[C@]3(C)C(=CC[C@@H]4[C@@]5(C)CC[C@H](O)C(C)(C)[C@@H]5CC[C@]43C)[C@@H]2C1 here.
Response: 3.19 mg/mL

----------
# assay_protocol: Saturation solubility of OA in different oils and surfactants
# Assay type: physicochemical
# experimental_parameters: oil or lipid, thermodynamic from solid; in Soybean oil, 24 h at 25 °C
assay_metric: solubility at 24 h (µg/mL)
Quick reminder: number only, in µg/mL, skip the unit.

Request: Supply recorded solubility at 24 h for CC1(C)CC[C@]2(C(=O)O)CC[C@]3(C)C(=CC[C@@H]4[C@@]5(C)CC[C@H](O)C(C)(C)[C@@H]5CC[C@]43C)[C@@H]2C1 here.
Response: 1060
